- Tested on: A498 renal
- Procedure summary: NCI-60 one-dose screen, 48 h (100 = growth as untreated, 0 = no growth, -100 = all killed)
- Cond: 10 µM unless noted
This is part of a sample that, as a whole, favours compounds with a hit. Of some 83,000 tested, about 20% had one in any assay.
This listing pairs compounds with measured growth.
Give your result in % as a bare value.

>>> observed_result("CCC(C)(C)O")
83.1
>>> observed_result("CO[C@@H](c1ccccc1Cl)[C@H](C)OC(N)=O")
96.3
>>> observed_result("N#Cc1ncc(/N=C/c2ccc(N(CCCl)CCCl)cc2)s1")
88.2
>>> observed_result("C[CH2][Sn]([CH2]C)([CH2]C)[NH]S(=O)(=O)c1ccc(C)cc1")
68
>>> observed_result("CC(C)(O)/C=C/C(=O)[C@](C)(O)[C@H]1[C@H](O)C[C@@]2(C)[C@@H]3CC=C4[C@@H](C=C(O)C(=O)C4(C)C)[C@]3(C)C(=O)C[C@]12C")
-79.8
>>> observed_result("C[CH2][Pb]([CH2]C)([CH2]C)[O]C(=O)COc1ccccc1")
-2.32
>>> observed_result("COc1cc(N(CCCl)CCCl)ccc1C=Nc1ccccc1C(=O)O")
66.3
>>> observed_result("COc1cc[c]([Hg][Cl])cc1")
84.8
>>> observed_result("S=P(N1CCCCCC1)(N1CC1)N1CC1")
107
>>> observed_result("O=C(N/N=C/c1ccc([N+](=O)[O-])o1)c1cc([N+](=O)[O-])cc([N+](=O)[O-])c1O")
79.7

The reported value for O=C(O)CNC(=O)c1ccccc1 in terms of growth is 85

Reported growth ( C[C@]12CC[C@@H]3c4ccc(OC(=O)Cc5ccc(N(CCCl)CCCl)cc5)cc4CC[C@H]3[C@@H]1CC[C@@H]2OC(=O)Cc1ccc(N(CCCl)CCCl)cc1 ) = 121

Values were extracted from PubChem BioAssay (NCI).
